Cited source: ChEMBL document CHEMBL1152947

Kindly state inhibition of growth at 10 µM for each of the entries shown.
- Tested on: MCF7
- protocol_description: Growth inhibition of human MCF7 cells at 10 uM after 4 days by MTT assay in presence of 10% fetal bovine serum relative to control
- Assay type: functional
- condition_description: MCF7, 96 h, read-out: GI
Give bare numbers, in %.

CC(=O)OCC[C@]1(C)[C@@H]([C@H](C)/C=C\C(C)C(C)C)CC[C@H]1C1=C[C@H](O)[C@H]2C[C@@H](O)CC[C@]2(C)C1=O (some centres undefined); 27
CCC(C)/C=C/[C@@H](C)[C@H]1CC[C@@H](C2=C[C@H](O)[C@H]3C[C@@H](O)CC[C@]3(C)C2=O)[C@]1(C)CCOC(C)=O (some centres undefined); 49

Okay, now this compound:
Q: Give the measured inhibition of growth at 10 µM for CC(=O)OCC[C@]1(C)[C@@H]([C@H](C)/C=C/C(C)C)CC[C@H]1C1=C[C@H](O)[C@H]2C[C@@H](O)CC[C@]2(C)C1=O
Ans: 34
